Biological target: T1, human LAG3 expressed on cells (human, UniProt P18627 23-525)
T1 sequence (looked up): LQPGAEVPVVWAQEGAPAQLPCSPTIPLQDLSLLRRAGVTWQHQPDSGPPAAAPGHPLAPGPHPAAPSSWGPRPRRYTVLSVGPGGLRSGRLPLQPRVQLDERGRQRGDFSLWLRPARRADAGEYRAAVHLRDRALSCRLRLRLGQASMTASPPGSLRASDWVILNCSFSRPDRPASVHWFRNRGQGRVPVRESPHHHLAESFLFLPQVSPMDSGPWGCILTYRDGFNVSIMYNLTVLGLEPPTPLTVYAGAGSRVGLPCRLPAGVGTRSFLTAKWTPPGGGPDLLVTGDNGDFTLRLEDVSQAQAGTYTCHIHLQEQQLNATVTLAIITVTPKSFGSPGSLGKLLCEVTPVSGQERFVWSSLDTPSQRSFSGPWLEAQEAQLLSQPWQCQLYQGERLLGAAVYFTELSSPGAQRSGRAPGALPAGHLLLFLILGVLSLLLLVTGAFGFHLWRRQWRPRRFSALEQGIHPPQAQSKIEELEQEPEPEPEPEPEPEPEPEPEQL
Assay: cell-based or functional assay

- Binder: "sdAb No. 25 (VHH, Fc of the tested form not described; also called sdAb 25; sdAb #25; not shown: Fc part implied by anti-human Fc capture and anti-human IgG Fc detection) VHH: QLQLVESGGGLVQAGGSLRLSCAASGSIESFSFMGWYRQAPGKQRELVAGFTGAASLSFSTYTDAVKGRFTISRDNAKNTVYLQMNSLKPEDTAVYFCNVDPWSQSWPGRYWGQGTQVTVSS"
  IL-2, % of BMS, at 0.015241579 ug/mL (%): -0.59
- Binder: "combination of sdAbs 25 and 27 (other) VHH 1: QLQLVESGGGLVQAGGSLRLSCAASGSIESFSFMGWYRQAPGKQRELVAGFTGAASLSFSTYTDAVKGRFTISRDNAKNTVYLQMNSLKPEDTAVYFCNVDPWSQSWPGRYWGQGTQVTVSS VHH 2: QVQLVESGGGLVQPGGSLRLSCAASGFTLDYYAIGWFRQAPGKEREGVSCIRSSDGSTYYADSVKGRFTISSDNTKNTVYLQMNSLKPEDTAVYYCATDRYSDCRGPYENWGQGTQVTVSS"
  IL-2, % of BMS, at 0.015241579 ug/mL (%): 4.21
- Binder: "sdAb No. 27 (VHH, Fc of the tested form not described; also called sdAb 27; not shown: Fc part implied by anti-human Fc capture and anti-human IgG Fc detection) VHH: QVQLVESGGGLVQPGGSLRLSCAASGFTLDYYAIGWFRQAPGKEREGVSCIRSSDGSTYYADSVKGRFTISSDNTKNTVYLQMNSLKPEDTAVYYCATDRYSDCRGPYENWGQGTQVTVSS"
  IL-2, % of BMS, at 0.015241579 ug/mL (%): 13.4

Source listed as patent US20230303690A1.
